- MEASURED_ON: Human Jak2 kinase domain (Homo sapiens (Human), UniProt O60674)
- Sequence (O60674 808-1132): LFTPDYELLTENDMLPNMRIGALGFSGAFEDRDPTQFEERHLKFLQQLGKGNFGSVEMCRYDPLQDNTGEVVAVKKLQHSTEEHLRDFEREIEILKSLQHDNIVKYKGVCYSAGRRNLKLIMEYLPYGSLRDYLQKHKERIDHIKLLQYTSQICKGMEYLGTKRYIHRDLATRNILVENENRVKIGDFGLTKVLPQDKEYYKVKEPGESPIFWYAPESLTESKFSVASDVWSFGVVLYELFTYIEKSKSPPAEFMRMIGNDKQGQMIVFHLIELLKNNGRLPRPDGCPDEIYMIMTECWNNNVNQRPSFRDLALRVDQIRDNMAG
- ASSAY_METHOD_TEXT: Jak2 Inhibition Assay (Omnia kinase assay)
- Format: biochemical
- CONDITION: Table 1; 500 μM ATP; >1000 nM when >50% inhibition not observed at 1000 nM; read-out: Jak2 Enzyme IC50
pIC50: −log10 of the molar value.

MOLECULE | MEASURED_ON | pIC50
O=C(NC1CCOCC1)c1cnn2ccc(N3CCC[C@@H]3c3cncc(F)c3)nc12 | Human Jak2 kinase domain (Homo sapiens (Human), UniProt O60674) | < 6.00
CC[C@@H](CO)NC(=O)c1cnn2ccc(N3CCC[C@@H]3c3cc(F)ccc3F)nc12 | Human Jak2 kinase domain (Homo sapiens (Human), UniProt O60674) | < 6.00
CC(C)(CF)NC(=O)c1cnn2ccc(N3CCC[C@@H]3c3cc(F)ccc3F)nc12 | Human Jak2 kinase domain (Homo sapiens (Human), UniProt O60674) | < 6.00
O=C(NOC[C@@H](O)CO)c1cnn2ccc(N3CCC[C@@H]3c3cc(F)ccc3F)nc12 | Human Jak2 kinase domain (Homo sapiens (Human), UniProt O60674) | < 6.00
O=C(NCC(F)CCl)c1cnn2ccc(N3CCC[C@@H]3c3cncc(F)c3)nc12 (stereo partly drawn) | Human Jak2 kinase domain (Homo sapiens (Human), UniProt O60674) | < 6.00
O=C(NC[C@@H](O)CO)c1cnn2ccc(N3CCC[C@@H]3c3cc(F)ccc3F)nc12 | Human Jak2 kinase domain (Homo sapiens (Human), UniProt O60674) | < 6.00
COc1ncc(F)cc1[C@H]1CCCN1c1ccn2ncc(C(=O)NC3CCN(S(C)(=O)=O)CC3)c2n1 | Human Jak2 kinase domain (Homo sapiens (Human), UniProt O60674) | 6.35
O=C(N[C@H]1CC[C@H](O)CC1)c1cnn2ccc(N3CCC[C@@H]3c3cc(F)ccc3F)nc12 | Human Jak2 kinase domain (Homo sapiens (Human), UniProt O60674) | 6.97
O=C(NCC(F)F)c1cnn2ccc(N3CCC[C@@H]3c3cncc(F)c3)nc12 | Human Jak2 kinase domain (Homo sapiens (Human), UniProt O60674) | < 6.00
CC(C)(C)NC(=O)c1cnn2ccc(N3CCC[C@@H]3c3cc(F)c[nH]c3=O)nc12 | Human Jak2 kinase domain (Homo sapiens (Human), UniProt O60674) | < 6.00
C[C@@H](NC(=O)c1cnn2ccc(N3CCC[C@@H]3c3cncc(F)c3)nc12)C1CC1 | Human Jak2 kinase domain (Homo sapiens (Human), UniProt O60674) | < 6.00
Cc1cccnc1NC(=O)c1cnn2ccc(N3CCC[C@@H]3c3cc(F)ccc3F)nc12 | Human Jak2 kinase domain (Homo sapiens (Human), UniProt O60674) | < 6.00
Cc1ncc(F)cc1[C@H]1CCCN1c1ccn2ncc(C(=O)N3CC(O)C3)c2n1 | Human Jak2 kinase domain (Homo sapiens (Human), UniProt O60674) | < 6.00
O=C(c1cnn2ccc(N3CCC[C@@H]3c3cncc(F)c3)nc12)N1CCCCC1 | Human Jak2 kinase domain (Homo sapiens (Human), UniProt O60674) | < 6.00
Cc1ncc(F)cc1[C@H]1CCCN1c1ccn2ncc(C(=O)NC[C@@H](C)O)c2n1 | Human Jak2 kinase domain (Homo sapiens (Human), UniProt O60674) | < 6.00
O=C(N[C@@H]1CCC[C@@H]1O)c1cnn2ccc(N3CCC[C@@H]3c3cncc(F)c3)nc12 | Human Jak2 kinase domain (Homo sapiens (Human), UniProt O60674) | < 6.00
CC1(C)CC[C@H](c2cc(F)ccc2F)N1c1ccn2ncc(C(N)=O)c2n1 | Human Jak2 kinase domain (Homo sapiens (Human), UniProt O60674) | < 6.00
CC(C)[C@@H](CO)NC(=O)c1cnn2ccc(N3CCC[C@@H]3c3cc(F)ccc3F)nc12 | Human Jak2 kinase domain (Homo sapiens (Human), UniProt O60674) | < 6.00
O=C(NCC(F)(F)F)c1cnn2ccc(N3CCC[C@@H]3c3cncc(F)c3)nc12 | Human Jak2 kinase domain (Homo sapiens (Human), UniProt O60674) | < 6.00
CC(C)(C)NC(=O)c1cnn2ccc(N3CCC[C@@H]3c3cc(F)ccc3F)nc12 | Human Jak2 kinase domain (Homo sapiens (Human), UniProt O60674) | < 6.00
O=C(NCCO)c1cnn2ccc(N3CCCC3c3cc(F)ccc3F)nc12 (stereo not drawn) | Human Jak2 kinase domain (Homo sapiens (Human), UniProt O60674) | < 6.00
COc1ncc(F)cc1[C@H]1CCCN1c1ccn2ncc(C(=O)NCCCCO)c2n1 | Human Jak2 kinase domain (Homo sapiens (Human), UniProt O60674) | < 6.00
O=C(NC1CC1)c1cnn2ccc(N3CCC[C@@H]3c3cc(F)ccc3F)nc12 | Human Jak2 kinase domain (Homo sapiens (Human), UniProt O60674) | < 6.00
COCC(O)CNC(=O)c1cnn2ccc(N3CCCC3c3cncc(F)c3)nc12 (stereo not drawn) | Human Jak2 kinase domain (Homo sapiens (Human), UniProt O60674) | < 6.00
O=C(NC1CC1)c1cnn2ccc(N3CCC[C@@H]3c3cncc(F)c3)nc12 | Human Jak2 kinase domain (Homo sapiens (Human), UniProt O60674) | < 6.00
O=C(NC1CCC1)c1cnn2ccc(N3CCC[C@@H]3c3cncc(F)c3)nc12 | Human Jak2 kinase domain (Homo sapiens (Human), UniProt O60674) | < 6.00
CC(C)(O)CNC(=O)c1cnn2ccc(N3CCC[C@@H]3c3cncc(F)c3)nc12 | Human Jak2 kinase domain (Homo sapiens (Human), UniProt O60674) | < 6.00
COc1ncc(F)cc1[C@H]1CCCN1c1ccn2ncc(C(=O)N3CC(C)(O)C3)c2n1 | Human Jak2 kinase domain (Homo sapiens (Human), UniProt O60674) | < 6.00
O=C(Nc1ccccn1)c1cnn2ccc(N3CCC[C@@H]3c3cc(F)ccc3F)nc12 | Human Jak2 kinase domain (Homo sapiens (Human), UniProt O60674) | < 6.00
CN(C)C(=O)c1cnn2ccc(N3CCC[C@@H]3c3cc(F)ccc3F)nc12 | Human Jak2 kinase domain (Homo sapiens (Human), UniProt O60674) | < 6.00
C[C@@H](CO)NC(=O)c1cnn2ccc(N3CCC[C@@H]3c3cncc(F)c3)nc12 | Human Jak2 kinase domain (Homo sapiens (Human), UniProt O60674) | < 6.00
O=C(c1cnn2ccc(N3CCC[C@@H]3c3cncc(F)c3)nc12)N1CCCC1 | Human Jak2 kinase domain (Homo sapiens (Human), UniProt O60674) | < 6.00
O=C(N[C@@H]1CCC[C@H]1O)c1cnn2ccc(N3CCC[C@@H]3c3cncc(F)c3)nc12 | Human Jak2 kinase domain (Homo sapiens (Human), UniProt O60674) | < 6.00
